Listing of recorded A450 at 13 nM Ab in cell ELISA by entry.
- tgt: T1, human gamma common chain expressed on CHO cells (human, UniProt P31785 23-369)
- T1 construct: whole, on cells; Control protein; also called human IL-2R-γ common subunit; human gamma (γ) common chain
- T1 sequence (looked up): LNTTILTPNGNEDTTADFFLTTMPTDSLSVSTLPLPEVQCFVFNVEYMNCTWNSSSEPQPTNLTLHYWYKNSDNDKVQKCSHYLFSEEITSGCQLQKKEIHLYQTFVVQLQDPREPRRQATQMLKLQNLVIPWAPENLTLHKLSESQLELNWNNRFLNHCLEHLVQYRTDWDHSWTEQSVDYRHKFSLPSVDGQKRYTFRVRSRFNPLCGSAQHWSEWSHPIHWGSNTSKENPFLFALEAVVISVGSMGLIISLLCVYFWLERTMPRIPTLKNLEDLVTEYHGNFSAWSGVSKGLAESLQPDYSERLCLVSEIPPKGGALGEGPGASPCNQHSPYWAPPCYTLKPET
- assay_remarks: cell ELISA on transfected CHO cells, 13 nM IgG
All answers are understood in A450, so give the number only.

>>> numeric_value("AbQ (antibody, human IgG1, V domains shown, Purified form: human IgG1 double-mutant (L234A, G237A); Framework limits derived; also called VH3/VL2; VH3DM/VL2) VH: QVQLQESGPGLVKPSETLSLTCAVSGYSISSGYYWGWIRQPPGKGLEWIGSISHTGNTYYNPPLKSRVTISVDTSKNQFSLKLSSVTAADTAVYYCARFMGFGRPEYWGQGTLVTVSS VL: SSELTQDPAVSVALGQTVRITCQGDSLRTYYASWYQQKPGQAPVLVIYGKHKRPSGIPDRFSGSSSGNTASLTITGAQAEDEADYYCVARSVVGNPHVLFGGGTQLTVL")
0.125
>>> numeric_value("AbP (antibody, human IgG1, V domains shown, Human IgG1 triple-mutant (L234A, L235A, G237A); Framework limits derived; also called VHP/VL20; VHPTM/VL20) VH: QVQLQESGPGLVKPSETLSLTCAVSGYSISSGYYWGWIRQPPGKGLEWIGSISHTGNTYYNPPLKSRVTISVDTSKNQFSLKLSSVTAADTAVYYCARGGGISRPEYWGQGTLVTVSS VL: SSELTQDPAVSVALGQTVRITCQGDSLRTYYASWYQQKPGQAPVLVIYGKHKRPSGIPDRFSGSSSGNTASLTITGAQAEDEADYYCVSRSAKGNPHVLFGGGTQLTVL")
0.112

Please look at the following binder next.
For the binder shown here, AbA (antibody, human IgG1, V domains shown, Full-length human IgG1 / human lambda, transient, conditioned medium; Framework limits derived; also called VHP/VL2) VH: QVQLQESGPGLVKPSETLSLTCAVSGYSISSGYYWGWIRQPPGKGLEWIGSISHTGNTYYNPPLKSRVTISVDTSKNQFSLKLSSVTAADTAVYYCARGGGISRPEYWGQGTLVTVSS VL: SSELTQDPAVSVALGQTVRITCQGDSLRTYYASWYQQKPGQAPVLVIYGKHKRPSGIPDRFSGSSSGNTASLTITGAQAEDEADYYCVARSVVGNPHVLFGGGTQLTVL , give the reported A450 at 13 nM Ab in cell ELISA.
0.111
